System: MDA-MB-468 breast
procedureSummary: NCI-60 one-dose screen, 48 h
conditions: 10 µM unless noted
Description: Growth inhibition of the MDA-MB-468 human Breast tumor cell line is measured as a screen for anti-cancer activity. Cells are grown in 96 well plates and exposed to the test compound for 48 hours. Compounds are tested at a single concentration, which is 10^-5 M for most compounds. The reported endpoint is percent growth (GI% or GIPRCNT), where numbers from 0 - 100% represent growth inhibition, and numbers from -100% - 0 represent cell death. […]
This is part of a sample that, as a whole, favours compounds with a hit. Of some 83,000 tested, about 20% had one in any assay. The source made the active and inactive calls. How the source made its calls: active means growth percent below 10; inactive means the rest.
Response enum: active, inactive

Examples with answers:
1) C[C@H]1[C@@H](CC(=O)N[C@@H](Cc2coc3ccccc23)B(O)O)O[C@@H]2OC3(C)CC[C@H]4[C@H](C)CC[C@@H]1[C@@]24OO3
active
2) N#CC(C#N)=Cc1ccc2ccccc2c1
inactive
3) CC[C@]12C=CCN3CC[C@@]4(c5ccc(OC)cc5N(C)[C@H]4[C@@](O)(C(=O)OC)[C@@H]1OC(=O)CCC[P+](C1CCCCC1)(C1CCCCC1)C1CCCCC1)[C@@H]32
active
4) CCOC(=O)C1C(C=C(C)C)C1(C)C (centres undefined)
inactive
5) Cn1cc(-c2csc(-c3cn(CCN4CCOCC4)c4ccc(F)cc34)n2)c2cccnc21
inactive
6) CC1=C(CN)C2=C(C)C3(CC3)[C@@](C)(O)C(=O)C2=C1
inactive

What classification did `Oc1cc(Cl)ccc1Oc1ccc(Cl)cc1Cl` end up with in this test?
active

// outcome(item) with item = `Clc1ccc(N2COOC3(OOC2)C2CC4CC(C2)CC3C4)cc1`
inactive

Recorded test outcome, item `COc1ccc(/C=C\c2cc(OC)c(OC)c(OC)c2)cc1NC(=O)/C=C/c1ccc(OC)c(OC)c1`
active

How did this test come out for CC(C)(C)C(=O)OCOP(=O)(NCc1ccccc1)C1CCCN(O)C1=O (centres undefined) ?
active

How was `C=CC[n+]1ccc(-c2cc[n+](CC=C)cc2)cc1` classified in this test?
inactive

* * *

A collection of compounds and their measured growth
System: SF-295 CNS
procedureSummary: NCI-60 one-dose screen, 48 h (100 = growth as untreated, 0 = no growth, -100 = all killed)
conditions: 10 µM
Method: Cells are grown in 96 well plates and exposed to the test compound for 48 hours. Compounds are tested at a single concentration, which is 10^-5 M for most compounds. The reported endpoint is percent growth (GI% or GIPRCNT), where numbers from 0 - 100% represent growth inhibition, and numbers from -100% - 0 represent cell death. For example, a value of 40 represents 60% growth inhibition. A value of 0 means no net growth occurred over the course of the experiment. […]
About 83,000 compounds went through this panel and 20% of them were active in at least one assay; those are over-represented in the sample as a whole.
Please respond with the number in % and leave the unit unwritten.

Recorded growth, per entry:
1) C[C@H]1[C@@H](Oc2ccc(-c3cn(-c4ccnc5cc(Cl)ccc45)nn3)cc2)O[C@@H]2OC3(C)CC[C@H]4[C@H](C)CC[C@@H]1[C@@]24OO3
37.6
2) COc1cc(OC)c(/C=C/C(=O)c2nc3ccccc3n2Cc2ccc(F)cc2)c(OC)c1
75.7
3) COCCOCCOCCOc1ccc(-n2cc(CCCN(CCNc3ccnc4cc(Cl)ccc34)C(=O)CCC(=O)O[C@@H]3O[C@@H]4OC5(C)CC[C@H]6[C@H](C)CC[C@@H]([C@H]3C)[C@@]46OO5)nn2)cc1
40.5
4) C[C@H]1[C@H](OC(=O)CCC(=O)N(CCCc2cn(-c3ccc(C#N)cc3)nn2)CCNc2ccnc3cc(Cl)ccc23)O[C@@H]2OC3(C)CC[C@H]4[C@H](C)CC[C@@H]1[C@@]24OO3
53.8
5) O=C(/C=C/c1ccc(Cl)cc1Cl)c1nc2ccccc2n1Cc1ccc(Br)cc1
79.4
6) O=C(/C=C/c1ccc(Br)cc1)c1nc2ccccc2n1Cc1ccc(Br)cc1
-34.9

For the next question, use this compound.
I'd like to know its growth. The compound in question is `O=C(NC([Se])=NC1CCCCC1)c1ccccc1`
8.53

* * *

System: HL-60(TB) leukemia
procedureSummary: NCI-60 one-dose screen, 48 h (100 = growth as untreated, 0 = no growth, -100 = all killed)
conditions: 10 µM unless noted
This is part of a sample that, as a whole, favours compounds with a hit. Of some 83,000 tested, about 20% had one in any assay.
Entries and their measured growth follow.
Number in %, nothing else.

1) O=C(Nc1ccc(Cl)c(C(F)(F)F)c1)N1CCN(c2cc(-c3cn(-c4ccccc4)nc3-c3cccc(O)c3)ccn2)CC1
-34.3
2) CCCCCCCCc1ccc(C(=O)Nc2ccc(C)cc2C(=O)O)cc1
92.2
3) CC(=O)OC[C@@]1(C)C2CC[C@]3(C)C(CC=C4C5CC(C)(C)CC[C@]5(C(=O)Nc5ccc(Br)cc5)CC[C@]43C)[C@@]2(C)C[C@@H](OC(C)=O)[C@@H]1OC(C)=O (stereo partly drawn)
32.3
4) COc1ccc(CCN2C(=O)/C(=C/c3csc(C#N)n3)SC2=S)cc1OC
-18
5) FC(F)(F)c1cc2c(Cl)ncnc2n1CCN1CCCCC1
-13.5
6) Cc1ccccc1Nc1nnc(-c2c[nH]c3ccccc23)o1
-23.7

# lookup: growth of `Cn1nc(C(F)(F)F)cc1-c1cc(Cl)c(COc2ccc(Cl)cc2)c(-c2ccc(Cl)c(C(F)(F)F)c2)c1O`
-22.5

Bench note: what growth did `CC(=O)Oc1ccccc1C(=O)[Se]CC(=O)Nc1cccc(C(F)(F)F)c1` show?
-14.9

Returns the measured growth for the input compound. Input: `O=C(/C=C/c1ccccc1)c1nc2ccccc2n1Cc1ccc(F)cc1`
-25.3

For the compound shown here, `Brc1ccc(N/N=C/c2c[nH]c3ccc(Br)cc23)nc1` , give the reported growth.
-17.2

What growth value was documented for this compound, `Cn1cc(-c2cc(N)n3nc(-c4c[nH]c5ccc(Cl)cc45)cc3n2)c2cccnc21` ?
-59.8

* * *

Tested on: CCRF-CEM leukemia
procedureSummary: NCI-60 one-dose screen, 48 h
conditions: 10 µM
The panel holds about 83,000 compounds, 20% with a hit somewhere; the sample as a whole holds those more often. The source made the active and inactive calls. Rule for the calls: active = growth percent below 10; inactive = the rest.
Bench note: report the call from True for active, False for inactive

See these solved cases before continuing.
1. CCOP(=O)(OCC)C(NC(C)=O)C(=O)SCCN (centres undefined)
False
2. CC[C@]12C=CCN3CC[C@@]4(c5ccc(OC)cc5N(C)[C@H]4[C@@](O)(C(=O)OC)[C@@H]1OC(=O)CCC[P+](c1ccc(F)cc1)(c1ccc(F)cc1)c1ccc(F)cc1)[C@@H]32
False

Hey, what did the test say about O=C([Se]C1C=CCCC1)c1ccc(C(=O)[Se]C2C=CCCC2)s1 (centres undefined) ?
True

Identify the outcome logged in this assay for the compound shown: `O=C(NC([Se])=NC1CCCCC1)c1ccc2c(c1)OCO2`
False

* * *

Test system: HCT-15 colon
procedureSummary: NCI-60 one-dose screen, 48 h
conditions: 10 µM
Compounds without any hit were thinned out: in the full panel of roughly 83,000, 20% have a hit. Activity calls are given as the source filed them. How the source made its calls: active means growth percent below 10; inactive means the rest.
Permitted responses: active, inactive

// known answers, use as guide
1) C[C@H]1[C@@H](Oc2ccc(-c3cn(-c4ccnc5cc(Cl)ccc45)nn3)cc2)O[C@@H]2OC3(C)CC[C@H]4[C@H](C)CC[C@@H]1[C@@]24OO3
inactive
2) CCOP(=O)(CC(F)(F)C(F)(F)F)OCC
active
3) CC(C)N=C([Se])NC(=O)c1ccccc1
active
4) CC1=C(CCC=O)C2=C(C)C3(CC3)[C@@](C)(O)C(=O)C2=C1
active

Record lookup: outcome of this test for `COc1cc(OC)c(S(=O)(=O)N(CCCl)CCCl)cc1C(=O)/C=C/c1cc(OC)c(OC)c(OC)c1` ?
active

What did the test return for Cc1c2oc3c(C)ccc(C(=O)N[C@@H]4C(=O)N[C@H](C(C)C)C(=O)N5CCC[C@H]5C(=O)N(C)CC(=O)N(C)[C@@H](C(C)C)C(=O)OC4C)c3nc-2c(C(=O)N[C@@H]2C(=O)N[C@H](C(C)C)C(=O)N3CC(=O)C[C@H]3C(=O)N(C)CC(=O)N(C)[C@@H](C(C)C)C(=O)OC2C)c(N)c1=O (some centres not stated) ?
active

I would be grateful if you could indicate the recorded call for `COc1ccc(/C=C/C(=O)c2nc3ccccc3n2Cc2ccc(Br)cc2)cc1` .
inactive

* * *

System: HL-60(TB) leukemia
procedureSummary: NCI-60 one-dose screen, 48 h (100 = growth as untreated, 0 = no growth, -100 = all killed)
conditions: 10 µM unless noted
This is part of a sample that, as a whole, favours compounds with a hit. Of some 83,000 tested, about 20% had one in any assay.
The label is Met for growth below 20% and Not met for growth equal to or exceeding 20%.

As a guide, the following entries are already answered.
1) O=CNc1cccc(-n2cnc3cc(-c4ccc(O)cc4)ccc32)c1
Met
2) COc1ccc(/C=C/c2nc3ccccc3c(=O)n2CC(=O)Nc2ccc(Cl)cc2)cc1
Not met
3) COc1ccc(-c2nc3ccc(-c4nnc(SCC(=O)Nc5ccc(/C(C)=N\O)cc5)o4)cc3[nH]2)cc1
Not met
4) COc1ccc(C(=O)C[n+]2cccc3c4ccccc4ccc32)cc1
Not met

growth under 20%? Item: `O=C(Nc1ccc(I)cc1F)c1cc(-c2ccc(F)cc2F)ccc1O`
Met

Hello, is growth of the following molecule strictly smaller than 20%? `C=CC(=O)Nc1ccc(C(=O)/C=C/c2ccc(N(C)C)cc2)c(O)c1`
Met

Record `Cc1nc2c(cnn2-c2ccccc2)c(=O)n1-c1ccc(NC(=O)c2ccc(F)cc2)cc1` : is its growth strictly below 20%?
Not met

I wonder whether `COc1ccc(OC)c(-c2cc(-c3c[nH]c4ccccc34)nc(N)c2C#N)c1` has growth below 20%. Can you tell?
Met

Please indicate whether the reported growth of `O/N=C(\CSc1nnc(-c2c[nH]c3ccccc23)n1-c1ccccc1)c1ccc(Cl)cc1` is strictly below 20%.
Met

Answer whether the molecule O=C(C1=CNC(=S)NC1c1ccc(O)cc1)c1cc2ccccc2oc1=O (stereo not given) has growth strictly less than 20%
Not met
